# Experimental System: T1, recombinant human IL-36R extracellular domain expressed with a C-terminal myc-myc-hexahistidine tag (human, UniProt Q9HB29 20-337)
# T1 construct: also called hIL-36R-MMH; hIL-36R.mmH
# T1 sequence (Q9HB29 other isoform, or with tags, fused parts or gaps limits assumed): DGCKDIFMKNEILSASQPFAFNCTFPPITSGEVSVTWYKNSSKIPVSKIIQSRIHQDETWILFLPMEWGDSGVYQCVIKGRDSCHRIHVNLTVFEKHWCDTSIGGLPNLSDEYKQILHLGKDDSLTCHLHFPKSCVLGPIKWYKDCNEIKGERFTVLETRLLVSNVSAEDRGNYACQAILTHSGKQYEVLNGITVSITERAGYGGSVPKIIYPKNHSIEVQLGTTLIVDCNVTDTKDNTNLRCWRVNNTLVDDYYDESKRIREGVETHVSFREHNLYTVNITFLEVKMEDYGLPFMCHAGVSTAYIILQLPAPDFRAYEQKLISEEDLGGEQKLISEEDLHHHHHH
# Assay Comment: SPR (Biacore 4000), mAb captured on anti-human Fc, 37°C
# Protocol: Equilibrium dissociation constants (KD values) for IL-36R binding to purified anti-IL-36R antibodies were determined using a real-time surface plasmon resonance biosensor using a Biacore 4000 instrument. […] Kinetic association rate constant (kₐ) and dissociation rate constant (kd) were determined by fitting the real-time sensorgrams to a 1:1 binding model using Scrubber 2.0c curve fitting software. […]

{"Binder": "H4H14731P (antibody, human IgG4 S228P, kappa, V domains shown) VH: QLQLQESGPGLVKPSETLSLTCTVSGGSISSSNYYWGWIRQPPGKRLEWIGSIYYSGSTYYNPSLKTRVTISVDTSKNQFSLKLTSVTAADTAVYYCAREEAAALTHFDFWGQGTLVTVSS VL: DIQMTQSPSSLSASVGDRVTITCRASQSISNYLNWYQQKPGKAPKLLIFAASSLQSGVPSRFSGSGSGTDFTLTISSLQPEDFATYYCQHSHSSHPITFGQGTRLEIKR", "kon / M⁻¹ s⁻¹": 137000}
{"Binder": "H4H14706P2 (antibody, human IgG4 S228P, kappa, V domains shown) VH: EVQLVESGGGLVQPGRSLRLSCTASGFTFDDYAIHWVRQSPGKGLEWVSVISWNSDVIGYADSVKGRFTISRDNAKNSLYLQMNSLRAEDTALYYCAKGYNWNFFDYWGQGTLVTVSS VL: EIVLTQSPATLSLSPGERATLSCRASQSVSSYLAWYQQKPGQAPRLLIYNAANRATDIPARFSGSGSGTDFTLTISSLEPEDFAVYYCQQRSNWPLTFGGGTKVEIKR", "kon / M⁻¹ s⁻¹": 150000}
{"Binder": "H4H14700P2 (antibody, human IgG4 S228P, kappa, V domains shown) VH: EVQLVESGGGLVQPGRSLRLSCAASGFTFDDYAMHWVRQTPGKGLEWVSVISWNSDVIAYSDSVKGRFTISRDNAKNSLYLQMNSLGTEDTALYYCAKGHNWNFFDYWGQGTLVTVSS VL: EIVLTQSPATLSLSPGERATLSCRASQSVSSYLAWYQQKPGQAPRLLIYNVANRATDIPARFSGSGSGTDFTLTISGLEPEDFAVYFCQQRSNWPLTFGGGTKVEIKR", "kon / M⁻¹ s⁻¹": 176000}

Ref: patent US20200017592A1
